target: CD47 on the red cell surface (Homo sapiens (Human), UniProt Q08722 19-323); assay: flow cytometry on fixed red cells, antibody 1 µg/mL
MEASUREMENT_KIND: MFI (MFI)
Answers are plain numbers, in MFI.

{"columns": ["BINDER", "VAL"],
 "data": [
  ["hz3F10-1.1 (antibody, human IgG4 S228P, kappa, V domains shown, humanized 3F10, full-length heavy and light chains) VH: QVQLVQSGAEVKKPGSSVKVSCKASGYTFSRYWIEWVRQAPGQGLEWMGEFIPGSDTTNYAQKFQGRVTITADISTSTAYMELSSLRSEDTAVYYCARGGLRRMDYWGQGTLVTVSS VL: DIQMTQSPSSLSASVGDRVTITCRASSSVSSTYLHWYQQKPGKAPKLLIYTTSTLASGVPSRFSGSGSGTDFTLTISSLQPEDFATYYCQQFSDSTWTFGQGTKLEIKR", 4450]
]}

The following binders each have a reported value; give each one's MFI.
1. hz3F10-4.2 (antibody, human IgG4 S228P, kappa, V domains shown, humanized 3F10, full-length heavy and light chains) VH: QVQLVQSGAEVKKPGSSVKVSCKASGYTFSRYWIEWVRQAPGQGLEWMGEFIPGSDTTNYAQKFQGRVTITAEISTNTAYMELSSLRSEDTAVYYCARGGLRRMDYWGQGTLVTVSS VL: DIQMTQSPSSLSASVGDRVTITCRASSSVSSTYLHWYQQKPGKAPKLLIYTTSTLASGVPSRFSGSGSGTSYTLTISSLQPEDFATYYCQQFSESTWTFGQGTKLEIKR
2. hz3F10-6.2 (antibody, human IgG4 S228P, kappa, V domains shown, humanized 3F10, full-length heavy and light chains) VH: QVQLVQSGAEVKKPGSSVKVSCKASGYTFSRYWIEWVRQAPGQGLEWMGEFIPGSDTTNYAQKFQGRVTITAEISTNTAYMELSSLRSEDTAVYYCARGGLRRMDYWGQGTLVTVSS VL: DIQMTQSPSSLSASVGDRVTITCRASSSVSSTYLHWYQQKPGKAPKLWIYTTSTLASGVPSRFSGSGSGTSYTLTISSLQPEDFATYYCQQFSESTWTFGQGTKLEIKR

1. 4810
2. 3440
